B1: library; a variant is named by its letters at N, in order (parent)
chain: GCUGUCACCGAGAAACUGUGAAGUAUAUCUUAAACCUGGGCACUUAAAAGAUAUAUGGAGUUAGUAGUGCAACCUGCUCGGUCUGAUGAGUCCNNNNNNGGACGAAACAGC

Variants of: B1
test description: normalized RNA/DNA level without ligand (relative to sTRSVctl = 100) (log10 (% of sTRSVctl)); HEK293T; ligand: cyclic di-GMP (c-di-GMP-II aptamer); higher = less ribozyme self-cleavage, higher mRNA level
study conditions: reporter: mCherry (pCS4076), ligand present: no
Listed variants paired with reported normalized RNA/DNA level without ligand (log10)
Form: value (number only, do not type unit).

GCUGUCACCGAGAAACUGUGAAGUAUAUCUUAAACCUGGGCACUUAAAAGAUAUAUGGAGUUAGUAGUGCAACCUGCUCGGUCUGAUGAGUCCAAUGCUGGACGAAACAGC : 1.73
GCUGUCACCGAGAAACUGUGAAGUAUAUCUUAAACCUGGGCACUUAAAAGAUAUAUGGAGUUAGUAGUGCAACCUGCUCGGUCUGAUGAGUCCCGGGGAGGACGAAACAGC : 1.54
GCUGUCACCGAGAAACUGUGAAGUAUAUCUUAAACCUGGGCACUUAAAAGAUAUAUGGAGUUAGUAGUGCAACCUGCUCGGUCUGAUGAGUCCGCCAUUGGACGAAACAGC : 1.58
GCUGUCACCGAGAAACUGUGAAGUAUAUCUUAAACCUGGGCACUUAAAAGAUAUAUGGAGUUAGUAGUGCAACCUGCUCGGUCUGAUGAGUCCAAGCGUGGACGAAACAGC : 1.56
GCUGUCACCGAGAAACUGUGAAGUAUAUCUUAAACCUGGGCACUUAAAAGAUAUAUGGAGUUAGUAGUGCAACCUGCUCGGUCUGAUGAGUCCAUUUCUGGACGAAACAGC : 1.74

## Input Please report the recorded normalized RNA/DNA level without ligand (log10) for GCUGUCACCGAGAAACUGUGAAGUAUAUCUUAAACCUGGGCACUUAAAAGAUAUAUGGAGUUAGUAGUGCAACCUGCUCGGUCUGAUGAGUCCCGAAUGGGACGAAACAGC .
## Output 1.66

## Input Let us now turn to GCUGUCACCGAGAAACUGUGAAGUAUAUCUUAAACCUGGGCACUUAAAAGAUAUAUGGAGUUAGUAGUGCAACCUGCUCGGUCUGAUGAGUCCCAGUGCGGACGAAACAGC
## Output 1.71
